# assay_target: Ba/F3 cells with EGFR WT (Homo sapiens)
# Construct: expressed in transfected cells; host or cells: Ba/F3 (murine pro-B cells), retroviral transduction, puromycin selection, maintained with EGF
# Sequence (P00533 25-1210): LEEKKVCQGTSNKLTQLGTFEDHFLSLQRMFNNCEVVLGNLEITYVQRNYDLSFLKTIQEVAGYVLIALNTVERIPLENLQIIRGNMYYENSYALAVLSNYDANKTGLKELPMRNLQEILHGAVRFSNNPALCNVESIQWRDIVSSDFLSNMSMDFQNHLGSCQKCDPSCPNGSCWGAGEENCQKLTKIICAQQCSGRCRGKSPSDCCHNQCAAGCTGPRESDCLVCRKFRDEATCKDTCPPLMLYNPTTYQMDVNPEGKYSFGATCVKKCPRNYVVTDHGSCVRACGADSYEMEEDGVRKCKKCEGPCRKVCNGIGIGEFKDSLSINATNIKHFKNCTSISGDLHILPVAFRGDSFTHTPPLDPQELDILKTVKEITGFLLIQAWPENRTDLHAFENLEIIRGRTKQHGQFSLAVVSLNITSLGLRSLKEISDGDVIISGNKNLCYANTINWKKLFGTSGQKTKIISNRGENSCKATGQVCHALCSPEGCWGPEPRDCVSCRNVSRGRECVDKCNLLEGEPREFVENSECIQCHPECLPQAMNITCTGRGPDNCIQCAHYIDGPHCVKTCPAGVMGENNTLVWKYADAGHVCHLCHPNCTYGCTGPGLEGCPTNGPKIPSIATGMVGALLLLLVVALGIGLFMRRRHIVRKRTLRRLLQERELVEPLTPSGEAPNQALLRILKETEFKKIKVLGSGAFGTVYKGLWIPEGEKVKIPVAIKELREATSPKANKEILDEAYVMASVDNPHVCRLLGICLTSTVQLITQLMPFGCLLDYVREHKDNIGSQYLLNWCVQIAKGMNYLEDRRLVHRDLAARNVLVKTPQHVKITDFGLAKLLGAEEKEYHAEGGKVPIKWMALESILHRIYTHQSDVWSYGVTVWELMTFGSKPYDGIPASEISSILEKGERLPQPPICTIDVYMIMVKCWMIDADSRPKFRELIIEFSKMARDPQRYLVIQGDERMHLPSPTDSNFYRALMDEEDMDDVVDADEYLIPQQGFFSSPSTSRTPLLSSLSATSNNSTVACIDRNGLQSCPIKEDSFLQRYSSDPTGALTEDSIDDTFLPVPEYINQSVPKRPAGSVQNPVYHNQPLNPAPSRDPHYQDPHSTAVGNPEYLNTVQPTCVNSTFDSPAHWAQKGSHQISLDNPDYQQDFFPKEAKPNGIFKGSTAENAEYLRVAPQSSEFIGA
# assay_explanation: EGFR activity: Ba/F3 cell viability (CellTiter-Glo, 72 h), EGFR WT
# Type: cell-based
# stated_conditions: read-out: BaF3 WT IC50

molecule	assay_target	IC50
C=CC(=O)NC1(C#Cc2cnccc2-c2[nH]c3c(c2Nc2cccc(Cl)c2OC)C(=O)NCC3)CCOCC1	Ba/F3 cells with EGFR WT (Homo sapiens)	0.1 to 1 µM
COc1c(Cl)cccc1Nc1c(-c2ccncc2OC[C@@]2(C)CCN2C(=O)/C=C/CN(C)C)[nH]c2c1C(=O)NCC2	Ba/F3 cells with EGFR WT (Homo sapiens)	0.1 to 1 µM
C=CC(=O)N1[C@H](C)CC[C@@H]1C#Cc1cnccc1-c1[nH]c2c(c1Nc1cccc(Cl)c1OC)C(=O)NCC2	Ba/F3 cells with EGFR WT (Homo sapiens)	0.1 to 1 µM
Cc1c(F)cccc1Nc1c(-c2ccncc2C#CC2(C)COC2)[nH]c2c1C(=O)NCC2	Ba/F3 cells with EGFR WT (Homo sapiens)	> 1 µM
CC#CC(=O)N1CCOC[C@H]1COc1cnccc1-c1[nH]c2c(c1Nc1cccc(F)c1OC)C(=O)NCC2	Ba/F3 cells with EGFR WT (Homo sapiens)	> 1 µM
COc1c(F)cccc1Nc1c(-c2ccncc2OCC2CCc3ncnn32)[nH]c2c1C(=O)NCC2 (stereo not drawn)	Ba/F3 cells with EGFR WT (Homo sapiens)	> 1 µM
COc1c(Cl)cccc1Nc1c(-c2ccncc2C#CC(C)(C)OC)[nH]c2c1C(=O)NCC2	Ba/F3 cells with EGFR WT (Homo sapiens)	< 0.1 µM
Cc1c(F)cccc1Nc1c(-c2ccncc2C#CC2CCOC2)[nH]c2c1C(=O)NCC2 (stereo not drawn)	Ba/F3 cells with EGFR WT (Homo sapiens)	> 1 µM
CC#CC(=O)N1CCOC[C@@H]1COc1cnccc1-c1[nH]c2c(c1Nc1cccc(F)c1OC)C(=O)NCC2	Ba/F3 cells with EGFR WT (Homo sapiens)	> 1 µM
COc1c(Cl)cccc1Nc1c(-c2ccncc2C#CC2CC2)[nH]c2c1C(=O)NCC2	Ba/F3 cells with EGFR WT (Homo sapiens)	0.1 to 1 µM
COc1c(F)cccc1Nc1c(-c2ccncc2OCc2ncc(C)cn2)[nH]c2c1C(=O)NCC2	Ba/F3 cells with EGFR WT (Homo sapiens)	< 0.1 µM
C=CC(=O)N1CC2CC1(C#Cc1cnccc1-c1[nH]c3c(c1Nc1cccc(F)c1C)C(=O)NCC3)C2	Ba/F3 cells with EGFR WT (Homo sapiens)	0.1 to 1 µM
CC#CC(=O)N1CC[C@H]1C#Cc1cnccc1-c1[nH]c2c(c1Nc1cccc(F)c1OC)C(=O)NCC2	Ba/F3 cells with EGFR WT (Homo sapiens)	0.1 to 1 µM
COc1c(Cl)cccc1Nc1c(-c2ccncc2C#C[C@H]2CN(C)CCO2)[nH]c2c1C(=O)NCC2	Ba/F3 cells with EGFR WT (Homo sapiens)	0.1 to 1 µM
CC#CC(=O)N1CC[C@@H]1C#Cc1cnccc1-c1[nH]c2c(c1Nc1cccc(F)c1OC)C(=O)NCC2	Ba/F3 cells with EGFR WT (Homo sapiens)	< 0.1 µM
C=CC(=O)NC(C)(C)C#Cc1cnccc1-c1[nH]c2c(c1Nc1cc(F)cc(Cl)c1OC)C(=O)NCC2	Ba/F3 cells with EGFR WT (Homo sapiens)	0.1 to 1 µM
C=CC(=O)NC1(C#Cc2cnccc2-c2[nH]c3c(c2Nc2cccc(Cl)c2OC)C(=O)NCC3)CNC1	Ba/F3 cells with EGFR WT (Homo sapiens)	> 1 µM
C=CC(=O)N1CCC[C@H]1COc1cnccc1-c1[nH]c2c(c1Nc1cccc(F)c1C)C(=O)NCC2	Ba/F3 cells with EGFR WT (Homo sapiens)	< 0.1 µM
CCc1c(F)cccc1Nc1c(-c2ccncc2OC[C@@]2(C)CCN2C(=O)/C=C/CN(C)C)[nH]c2c1C(=O)NCC2	Ba/F3 cells with EGFR WT (Homo sapiens)	0.1 to 1 µM
C=CC(=O)N1CCC[C@@H]1COc1cnccc1-c1[nH]c2c(c1Nc1cccc(F)c1C)C(=O)NCC2	Ba/F3 cells with EGFR WT (Homo sapiens)	0.1 to 1 µM
C=CC(=O)N1CCOC[C@]1(C)C#Cc1cnccc1-c1[nH]c2c(c1Nc1cccc(Cl)c1OC)C(=O)NCC2	Ba/F3 cells with EGFR WT (Homo sapiens)	0.1 to 1 µM
CC#CC(=O)N1CC[C@@H]1COc1cnccc1-c1[nH]c2c(c1Nc1cccc(Cl)c1OC)C(=O)NCC2	Ba/F3 cells with EGFR WT (Homo sapiens)	0.1 to 1 µM
COc1c(F)cccc1Nc1c(-c2ccncc2OCn2nnc3ccccc32)[nH]c2c1C(=O)NCC2	Ba/F3 cells with EGFR WT (Homo sapiens)	> 1 µM
COc1c(F)cccc1Nc1c(-c2ccncc2C#C[C@@]2(C)CCCN2C(=O)/C=C/CN2CC[C@H](OC)C2)[nH]c2c1C(=O)NCC2	Ba/F3 cells with EGFR WT (Homo sapiens)	0.1 to 1 µM
CC#CC(=O)N1CC[C@]1(C)COc1cnccc1-c1[nH]c2c(c1Nc1cccc(F)c1OC)C(=O)NCC2	Ba/F3 cells with EGFR WT (Homo sapiens)	0.1 to 1 µM
COc1c(Cl)cccc1Nc1c(-c2ccncc2C#CC2(C(F)F)CC2)[nH]c2c1C(=O)NCC2	Ba/F3 cells with EGFR WT (Homo sapiens)	0.1 to 1 µM
CCc1c(F)cccc1Nc1c(-c2ccncc2C#CC(C)(C)NC(=O)/C=C/CN(C)C)[nH]c2c1C(=O)NCC2	Ba/F3 cells with EGFR WT (Homo sapiens)	0.1 to 1 µM
